IC50 reference
Test system: HepG2 cells
METHOD: HepG2 cytotoxicity assay (AlamarBlue)
Format: cell-based, human
CONDITION: HepG2 cells, 72 h, AlamarBlue, titration 0.001 to 46 µM; mean ± SD, n = 3

Reference set (3 entries):
[
  {
    "MOLECULE": "CC(C)(C)OC(=O)N1CCC(c2c(C(=O)NCCN3CCOCC3)cnn2-c2ccccc2)CC1 [NCGC00127015]",
    "IC50": "38.4 µM"
  },
  {
    "MOLECULE": "COc1ccc(CCN2CCC(CNC(=O)c3cnn(-c4ccccc4)c3C3CCN(C(=O)OC(C)(C)C)CC3)CC2)cc1 [NCGC00126987]",
    "IC50": "38.6 µM"
  },
  {
    "MOLECULE": "CC(C)(C)OC(=O)N1CCC(c2c(C(=O)NCCN3CCC(Cc4ccccc4)CC3)cnn2-c2cccc(Cl)c2)CC1 [NCGC00126892]",
    "IC50": "34.4 µM"
  }
]

For the next question, use this molecule.
Consider the molecule CC(C)(C)OC(=O)N1CCC(c2c(C(=O)NCCN3CCC(Cc4ccccc4)CC3)cnn2-c2ccccc2)CC1 [NCGC00127017] and give its measured IC50. 25.3 µM

###

The compounds listed here are annotated with their maximum response, HepG2 cytotoxicity.
System: HepG2 cells
METHOD: HepG2 cytotoxicity assay (AlamarBlue)
Format: cell-based, human
CONDITION: titration 0.001 to 46 µM
Report only the number, with the unit % understood.

Guide cases for maximum response, HepG2 cytotoxicity, answers given:
[
  {
    "CHEMICAL_STRUCTURE": "CC(C)(C)OC(=O)N1CCC(c2c(C(=O)NCCN3CCC(Cc4ccccc4)CC3)cnn2-c2ccccc2)CC1",
    "maximum response, HepG2 cytotoxicity [%]": 87.6
  },
  {
    "CHEMICAL_STRUCTURE": "CC(C)(C)OC(=O)N1CCC(c2c(C(=O)NCCN3CCOCC3)cnn2-c2ccccc2)CC1",
    "maximum response, HepG2 cytotoxicity [%]": 87.2
  },
  {
    "CHEMICAL_STRUCTURE": "CC(C)(C)OC(=O)N1CCC(c2c(C(=O)NCCN3CCC(Cc4ccccc4)CC3)cnn2-c2cccc(Cl)c2)CC1",
    "maximum response, HepG2 cytotoxicity [%]": 93.0
  }
]

Please find the next compound below.
Entry `COc1ccc(CCN2CCC(CNC(=O)c3cnn(-c4ccccc4)c3C3CCN(C(=O)OC(C)(C)C)CC3)CC2)cc1` : reported maximum response, HepG2 cytotoxicity = ? 86.1

Hello, the source for this data is paper PMC5390467, in case you need it.
